# assayTarget: BRD4 bromodomain domain I [BRD4(1)] (Homo sapiens, UniProt O60885)
# Construct: BRD4 bromodomain domain I [BRD4(1)]; purchased Cayman Chemicals
# testName: BRD4 bromodomain domain 1 inhibition assay (TR-FRET)
# Type: binding
# conditionSummary: screening concentration 10 μM
Each entry below lists one item and its recorded inhibition at 10 µM value.

Past entries and their recorded results:
{"compound": "CCOc1cc(C(=O)N2CCN(CCO)CC2)ccc1Nc1cc2c(cn1)N(C)C(=O)c1ccccc1N2C", "inhibition at 10 µM": "70 to 85%"}
{"compound": "COc1cc(NS(C)(=O)=O)ccc1Nc1cc2c(cn1)N(C)C(=O)c1ccccc1N2C", "inhibition at 10 µM": "< 70%"}
{"compound": "CN1C(=O)c2ccccc2N(C)c2cc(NC3CCC(N)CC3)ncc21 (centres unmarked)", "inhibition at 10 µM": "< 70%"}

The reported inhibition at 10 µM of the compound CCOc1cc(C(=O)N2CCC(OC)CC2)ccc1Nc1cc2c(cn1)N(C)C(=O)c1ccccc1N2C was 70 to 85%

The reported inhibition at 10 µM of the compound CCOc1cc(C(=O)NC(CO)CO)ccc1Nc1cc2c(cn1)N(C)C(=O)c1ccccc1N2C was < 70%

The reported inhibition at 10 µM of the compound CCOc1cc(C(=O)N2CCOCC2)ccc1Nc1cc2c(cn1)N(C)C(=O)c1ccccc1O2 was < 70%

The reported inhibition at 10 µM of the compound CCOc1cc(C(=O)NC2CCOCC2)ccc1Nc1cc2c(cn1)N(C)C(=O)c1ccccc1N2C was < 70%

The reported inhibition at 10 µM of the compound CCOc1cc(C(=O)N[C@@H]2CCCOC2)ccc1Nc1cc2c(cn1)N(C)C(=O)c1ccccc1N2C was < 70%

----------
Each entry below lists one item and its recorded EC50 value.
# Tested on: cynomolgus monkey PBMCs
# testName: Cytokine response by primary cynomolgus monkey PBMCs stimulated with LPS
# Type: cell-based, cynomolgus monkey (M. fascicularis)
# conditionSummary: Macaca fascicularis, PBMC; 100 ng/ml LPS 20 h; read-out: EC50 (μM) under LPS stimulation, IFN-γ
# number only, unit µM dropped from output

{"molecularString": "CCOc1cc(C(=O)N2CCCN(C)CC2)ccc1Nc1cc2c(cn1)N(C)C(=O)c1ccccc1N2C", "EC50 [µM]": 0.55}

Next:
The reported EC50 of the compound CCOc1cc(C(=O)N2CCC(N3CCCC3)CC2)ccc1Nc1cc2c(cn1)N(C)C(=O)c1ccccc1N2C was 0.28

----------
Each entry below lists one item and its recorded inhibition at 10 µM value.
# Test system: human Th17 cells
# testName: Cytokine response by in vitro-polarized human Th17 cells stimulated with PMA/ionomycin
# Type: cell-based
# conditionSummary: 10 μM compound, PMA/ionomycin 20 h, read-out: Percent inhibition of TNFα (relative to DMSO control)
# number only, unit % dropped from output

Past entries and their recorded results:
{"molecularString": "CCOc1cc(C(=O)N2CCC(N3CCCC3)CC2)ccc1Nc1cc2c(cn1)N(C)C(=O)c1ccccc1N2C", "assayTarget": "human Th17 cells", "inhibition at 10 µM, %": 22}
{"molecularString": "CCOc1cc(C(=O)N2CC[C@@H](N(C)C)C2)ccc1Nc1cc2c(cn1)N(C)C(=O)c1ccccc1N2C", "assayTarget": "human Th17 cells", "inhibition at 10 µM, %": 57.1}
{"molecularString": "CCOc1cc(C(=O)N2CCNCC2)ccc1Nc1cc2c(cn1)N(C)C(=O)c1ccccc1N2C", "assayTarget": "human Th17 cells", "inhibition at 10 µM, %": -10.4}
{"molecularString": "CCOc1cc(C(=O)N2CCC(N3CCN(C)CC3)CC2)ccc1Nc1cc2c(cn1)N(C)C(=O)c1ccccc1N2C", "assayTarget": "human Th17 cells", "inhibition at 10 µM, %": -6.3}
{"molecularString": "CCOc1cc(C(=O)NCC2CC2)ccc1Nc1cc2c(cn1)N(C)C(=O)c1ccccc1N2C", "assayTarget": "human Th17 cells", "inhibition at 10 µM, %": 5.6}

Case CCOc1cc(C(=O)N2CCC(N3CCN(C)CC3)CC2)ccc1Nc1cc2c(cn1)N(C)C(=O)c1occc1N2C , human Th17 cells, inhibition at 10 µM recorded as 11.3

----------
# assayTarget: ERK5 (Homo sapiens)
# Construct: screened for activity against several kinases in Jurkat cells; endogenous in cells; host or cells: Jurkat cell lysate
# testName: Probe-based (AX9989 acyl phosphate ATP probe) kinase profiling in Jurkat lysate: ERK5
# Assay type: binding
# conditionSummary: screening concentration 0.1 μM; read-out: Kinase inhibition % at indicated screening concentration: ERK5
Each entry below lists one item and its recorded inhibition at 0.1 µM value.

The reported inhibition at 0.1 µM of the molecule CCOc1cc(C(=O)N2CCC(F)C2)ccc1Nc1cc2c(cn1)N(C)C(=O)c1occc1N2C (stereo not drawn) was 75 to 90%

The reported inhibition at 0.1 µM of the molecule CCOc1cc(C(=O)N2CCC(NC3CC3)C2)ccc1Nc1cc2c(cn1)N(C)C(=O)c1ccccc1N2C (stereo not drawn) was 75 to 90%

The reported inhibition at 0.1 µM of the molecule CCOc1cc(C(=O)N2CCC(NC)C2)ccc1Nc1cc2c(cn1)N(C)C(=O)c1occc1N2C (stereo not drawn) was > 90%

----------
# assayTarget: ERK5 (Homo sapiens, UniProt Q13164)
# Construct: screened for activity against several kinases in Jurkat cells; endogenous in cells; host or cells: Jurkat cell lysate
# Sequence (Q13164 whole entry): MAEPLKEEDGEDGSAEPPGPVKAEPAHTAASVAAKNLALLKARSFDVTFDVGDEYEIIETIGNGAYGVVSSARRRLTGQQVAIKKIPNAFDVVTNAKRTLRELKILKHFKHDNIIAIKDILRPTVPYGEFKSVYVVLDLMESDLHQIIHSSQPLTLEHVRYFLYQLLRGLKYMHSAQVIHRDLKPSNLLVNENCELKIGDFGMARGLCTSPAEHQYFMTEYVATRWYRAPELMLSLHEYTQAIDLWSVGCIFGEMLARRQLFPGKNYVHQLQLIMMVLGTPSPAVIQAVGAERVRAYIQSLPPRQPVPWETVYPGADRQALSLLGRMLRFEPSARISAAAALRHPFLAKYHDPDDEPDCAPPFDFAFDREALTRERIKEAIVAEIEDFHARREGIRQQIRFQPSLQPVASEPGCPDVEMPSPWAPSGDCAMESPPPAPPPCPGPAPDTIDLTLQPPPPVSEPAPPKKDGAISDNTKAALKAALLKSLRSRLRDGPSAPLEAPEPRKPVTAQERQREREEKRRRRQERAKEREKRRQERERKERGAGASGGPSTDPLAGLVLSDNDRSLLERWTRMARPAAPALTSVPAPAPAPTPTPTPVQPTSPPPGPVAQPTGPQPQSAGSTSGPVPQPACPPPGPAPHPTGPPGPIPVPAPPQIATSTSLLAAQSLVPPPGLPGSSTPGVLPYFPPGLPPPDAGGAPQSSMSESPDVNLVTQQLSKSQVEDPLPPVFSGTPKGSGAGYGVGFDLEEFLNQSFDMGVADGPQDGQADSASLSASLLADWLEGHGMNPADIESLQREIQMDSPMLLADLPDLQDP
# testName: Probe-based (AX9989 acyl phosphate ATP probe) kinase profiling in Jurkat lysate: ERK5
# Format: binding
# conditionSummary: screening concentration 1.0 μM; read-out: Kinase inhibition % at indicated screening concentration: ERK5
Each entry below lists one item and its recorded inhibition at 1 µM value.

The reported inhibition at 1 µM of the compound CCOc1cc(C(=O)N2CC[C@H](N(C)C)C2)ccc1Nc1cc2c(cn1)N(C)C(=O)c1ccccc1N2C was > 90%

----------
# assayTarget: ACK (Homo sapiens)
# Construct: screened for activity against several kinases in Jurkat cells; endogenous in cells; host or cells: Jurkat cell lysate
# Sequence (Q07912 whole entry): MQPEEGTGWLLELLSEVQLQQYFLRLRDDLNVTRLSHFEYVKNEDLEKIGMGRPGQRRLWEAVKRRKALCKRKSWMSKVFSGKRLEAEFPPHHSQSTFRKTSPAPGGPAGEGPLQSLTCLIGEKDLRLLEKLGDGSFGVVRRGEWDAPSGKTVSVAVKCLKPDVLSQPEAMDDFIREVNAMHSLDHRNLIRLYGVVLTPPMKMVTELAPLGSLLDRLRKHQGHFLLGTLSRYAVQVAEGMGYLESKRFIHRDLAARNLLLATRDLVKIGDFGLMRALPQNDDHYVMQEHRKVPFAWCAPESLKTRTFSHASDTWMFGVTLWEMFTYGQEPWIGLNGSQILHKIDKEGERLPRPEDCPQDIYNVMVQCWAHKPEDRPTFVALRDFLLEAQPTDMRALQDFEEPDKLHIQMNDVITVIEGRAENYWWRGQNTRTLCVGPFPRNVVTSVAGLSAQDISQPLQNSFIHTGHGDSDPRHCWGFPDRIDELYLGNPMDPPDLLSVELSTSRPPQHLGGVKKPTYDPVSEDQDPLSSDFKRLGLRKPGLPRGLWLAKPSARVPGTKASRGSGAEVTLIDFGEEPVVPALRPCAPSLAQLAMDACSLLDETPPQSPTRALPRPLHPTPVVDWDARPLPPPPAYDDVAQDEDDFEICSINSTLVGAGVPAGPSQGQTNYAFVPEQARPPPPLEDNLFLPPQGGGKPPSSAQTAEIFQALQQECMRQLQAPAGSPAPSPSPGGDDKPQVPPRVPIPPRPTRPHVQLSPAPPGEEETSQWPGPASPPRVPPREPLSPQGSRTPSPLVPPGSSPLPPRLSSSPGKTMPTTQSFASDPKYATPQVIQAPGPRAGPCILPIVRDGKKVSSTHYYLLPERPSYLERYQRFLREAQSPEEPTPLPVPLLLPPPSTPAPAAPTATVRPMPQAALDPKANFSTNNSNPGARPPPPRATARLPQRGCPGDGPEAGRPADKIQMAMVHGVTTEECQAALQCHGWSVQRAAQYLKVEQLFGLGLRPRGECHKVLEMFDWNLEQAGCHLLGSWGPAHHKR
# testName: Probe-based (AX9989) kinase profiling in Jurkat lysate: ACK
# Type: binding
# conditionSummary: screening concentration 1 μM; read-out: ACK Inhibition % at indicated screening concentration
Each entry below lists one item and its recorded inhibition at 1 µM value.

Past entries and their recorded results:
{"compound": "[2H]C([2H])([2H])N1C(=O)c2ccccc2N(C([2H])([2H])[2H])c2cc(Nc3ccc(C(=O)N4CCN(C(C)=O)CC4)cc3OCC)ncc21 [Compound T77]", "assayTarget": "ACK (Homo sapiens)", "inhibition at 1 µM": "≤ 35%"}
{"compound": "CN1CCN(C2CCN(C(=O)c3ccc(Nc4cc5c(cn4)N(C)C(=O)c4ccccc4N5C)c(OCCF)c3)CC2)CC1 [Compound T34]", "assayTarget": "ACK (Homo sapiens)", "inhibition at 1 µM": "≤ 35%"}

Case CN1CCC(N2CCN(C(=O)c3ccc(Nc4cc5c(cn4)N(C)C(=O)c4ccccc4N5C)c(OC(F)F)c3)CC2)CC1 [Compound T76] , ACK (Homo sapiens), inhibition at 1 µM recorded as ≤ 35%

----------
# assayTarget: BRD4 bromodomain domain I [BRD4(1)] (Homo sapiens)
# Construct: BRD4 bromodomain domain I [BRD4(1)]
# testName: BRD4 bromodomain domain 1 inhibition assay (TR-FRET)
pIC50: −log10 of the molar value.
Each entry below lists one item and its recorded pIC50 value.

{"compound": "CN1C(=O)c2ccccc2N(C)c2cc(N[C@H]3CC[C@H](N4CCCS4(=O)=O)CC3)ncc21", "pIC50": "< 5.30"}
{"compound": "CN1C(=O)c2c(F)ccc(F)c2Oc2cc(N[C@H]3CC[C@H](O)CC3)ncc21", "pIC50": "5.30 to 5.70"}
{"compound": "CN1C(=O)c2ccccc2Sc2cc(N[C@H]3CC[C@H](O)CC3)ncc21", "pIC50": "< 5.30"}

Next:
Case CCOC1CCCC[C@H]1Nc1cc2c(cn1)N(C)C(=O)c1ccccc1N2C (stereo partly shown) , BRD4 bromodomain domain I [BRD4(1)] (Homo sapiens), pIC50 recorded as < 5.30

----------
# Test system: cynomolgus monkey PBMCs
# testName: Cytokine response by primary cynomolgus monkey PBMCs stimulated with LPS
# Type: cell-based, cynomolgus monkey (M. fascicularis)
# conditionSummary: Macaca fascicularis, PBMC; 100 ng/ml LPS 20 h; read-out: EC50 (μM) under LPS stimulation, sCD40L
# Description: Freshly isolated cynomolgus monkey (M. fascicularis) peripheral blood mononuclear cells (PBMCs) were purchased from SNBL (Everett, Wash.). […] Supernatant was collected and analyzed using the Milliplex Map Non-human Primate Cytokine Magnetic Bead Panel Kit (EMD Millipore) as per manufacturer's protocols. Magnetic beads were read on the Bio-Plex MAGPIX multiplex reader instrument using the accompanying xPONENT 4.2 acquisition software (Bio-Rad Laboratories, Hercules, Calif.). […]
Each entry below lists one item and its recorded EC50 value.
Please make sure the unit comes right after the number.

{"molecularString": "CCOc1cc(C(=O)N2CCCN(C)CC2)ccc1Nc1cc2c(cn1)N(C)C(=O)c1ccccc1N2C", "EC50": "1.14 µM"}

Case CCOc1cc(C(=O)N2CCC(N3CCCC3)CC2)ccc1Nc1cc2c(cn1)N(C)C(=O)c1ccccc1N2C , cynomolgus monkey PBMCs, EC50 recorded as 0.41 µM
